- target under test: Gastrin-releasing peptide receptor (Rattus norvegicus) (UniProt P52500)
- Sequence (P52500 whole entry): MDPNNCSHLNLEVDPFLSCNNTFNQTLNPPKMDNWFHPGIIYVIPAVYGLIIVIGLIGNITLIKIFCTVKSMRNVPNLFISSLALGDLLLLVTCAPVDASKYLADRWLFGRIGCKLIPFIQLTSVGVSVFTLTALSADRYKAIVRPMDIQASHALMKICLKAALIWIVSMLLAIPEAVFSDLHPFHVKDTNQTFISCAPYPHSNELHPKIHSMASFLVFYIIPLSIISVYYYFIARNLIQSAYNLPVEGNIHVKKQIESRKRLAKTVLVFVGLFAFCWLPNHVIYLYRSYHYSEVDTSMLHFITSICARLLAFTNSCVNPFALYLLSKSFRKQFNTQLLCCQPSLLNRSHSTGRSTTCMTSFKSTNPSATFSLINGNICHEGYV
- experiment: Tested for the inhibition of Bombesin-stimulated amylase release in the presence of 0.2 nM of bombesin in rat pranceatic acini
- Assay type: functional
Where a SMILES comes first, the peptide text is derived from it. The star is where a group is joined. X1 = CSCC[C@H](NC[C@H](CC(C)C)N*)C(N)=O
quantity: Release (%)

Some compounds with known Release results, for comparison:
Need Release of CSCC[C@H](NC[C@H](CC(C)C)NC(=O)[C@H](Cc1c[nH]cn1)NC(=O)CNC(=O)[C@@H](NC(=O)[C@H](C)NC(=O)[C@@H](N)Cc1c[nH]c2ccccc12)C(C)C)C(N)=O (H-WAVGH-X1) , thanks.
17.6

Continue with "CC(=O)NC[C@H](CC(C)C)NC(=O)[C@H](Cc1c[nH]cn1)NC(=O)CNC(=O)[C@@H](NC(=O)[C@H](C)NC(=O)[C@H](Cc1cn(C=O)c2ccccc12)NC(=O)[C@H](Cc1c[nH]cn1)NC(=O)[C@H](N)Cc1ccccc1)C(C)C"
20.3

P = CSCC[C@@H](C(N)=O)N(C=O)C[C@H](CC(C)C)NC(=O)[C@H](Cc1c[nH]cn1)NC(=O)CNC(=O)[C@@H](NC(=O)[C@H](C)NC(=O)[C@H](Cc1c[nH]c2ccccc12)NC(=O)[C@H](Cc1c[nH]cn1)NC(=O)[C@H](N)Cc1ccccc1)C(C)C
Q = CCCCC[C@H](CC(C)C)NC(=O)[C@H](Cc1c[nH]cn1)NC(=O)CNC(=O)[C@@H](NC(=O)[C@H](C)NC(=O)[C@H](Cc1c[nH]c2ccccc12)NC(=O)[C@@H](Cc1c[nH]cn1)NC(=O)C(C)(C)C)C(C)C
Of P versus Q , which is the one with smaller reported Release? Answer = label.
P
(P: 10.4%, Q: 17.4%)

###

- target under test: Gastrin-releasing peptide receptor (Rattus norvegicus)
- experiment: Tested for the inhibition of bombesin-stimulated amylase release in rat pranceatic acini
- Type: functional
Where a SMILES comes first, the peptide text is derived from it. The star is where a group is joined. X2 = CC(=O)NC[C@H](CC(C)C)N*; For = O=C*
quantity: Release (%)

Some compounds with known Release results, for comparison:
I'm curious: which Release was measured for "CC(=O)NC[C@H](CC(C)C)NC(=O)[C@H](Cc1c[nH]cn1)NC(=O)CNC(=O)[C@@H](NC(=O)[C@H](C)NC(=O)[C@H](Cc1c[nH]c2ccccc12)NC(=O)[C@H](Cc1c[nH]cn1)NC(=O)[C@H](N)Cc1ccccc1)C(C)C" tested on Gastrin-releasing peptide receptor (Rattus norvegicus)?
3

Continue with "CN[C@@H](Cc1ccccc1)C(=O)N[C@@H](Cc1c[nH]cn1)C(=O)N[C@@H](Cc1c[nH]c2ccccc12)C(=O)N[C@@H](C)C(=O)N[C@H](C(=O)NCC(=O)N[C@@H](Cc1c[nH]cn1)C(=O)N[C@@H](CC(C)C)CN(C=O)[C@@H](CCSC)C(N)=O)C(C)C"
3.5

a = CN[C@H](Cc1ccccc1)C(=O)N[C@@H](Cc1c[nH]c2ccccc12)C(=O)N[C@@H](C)C(=O)N[C@H](C(=O)NCC(=O)N[C@@H](Cc1c[nH]cn1)C(=O)N[C@H](CN[C@@H](CCSC)C(N)=O)CC(C)C)C(C)C
b = CC(=O)NC[C@H](CC(C)C)NC(=O)[C@H](Cc1c[nH]cn1)NC(=O)CNC(=O)[C@@H](NC(=O)[C@H](C)NC(=O)[C@H](Cc1cn(C=O)c2ccccc12)NC(=O)[C@H](Cc1c[nH]cn1)NC(=O)[C@H](CCC(N)=O)NC(C)=O)C(C)C (Ac-QHW(For)AVGH-X2)
In the pair a and b , the larger recorded Release belongs to which? Answer = label.
a
(a: 6.4%, b: 3.2%)
